target_of_assay: human ether-à-go-go-related gene (hERG) potassium channel (human, UniProt Q12809)
Sequence (Q12809 whole entry, looked up): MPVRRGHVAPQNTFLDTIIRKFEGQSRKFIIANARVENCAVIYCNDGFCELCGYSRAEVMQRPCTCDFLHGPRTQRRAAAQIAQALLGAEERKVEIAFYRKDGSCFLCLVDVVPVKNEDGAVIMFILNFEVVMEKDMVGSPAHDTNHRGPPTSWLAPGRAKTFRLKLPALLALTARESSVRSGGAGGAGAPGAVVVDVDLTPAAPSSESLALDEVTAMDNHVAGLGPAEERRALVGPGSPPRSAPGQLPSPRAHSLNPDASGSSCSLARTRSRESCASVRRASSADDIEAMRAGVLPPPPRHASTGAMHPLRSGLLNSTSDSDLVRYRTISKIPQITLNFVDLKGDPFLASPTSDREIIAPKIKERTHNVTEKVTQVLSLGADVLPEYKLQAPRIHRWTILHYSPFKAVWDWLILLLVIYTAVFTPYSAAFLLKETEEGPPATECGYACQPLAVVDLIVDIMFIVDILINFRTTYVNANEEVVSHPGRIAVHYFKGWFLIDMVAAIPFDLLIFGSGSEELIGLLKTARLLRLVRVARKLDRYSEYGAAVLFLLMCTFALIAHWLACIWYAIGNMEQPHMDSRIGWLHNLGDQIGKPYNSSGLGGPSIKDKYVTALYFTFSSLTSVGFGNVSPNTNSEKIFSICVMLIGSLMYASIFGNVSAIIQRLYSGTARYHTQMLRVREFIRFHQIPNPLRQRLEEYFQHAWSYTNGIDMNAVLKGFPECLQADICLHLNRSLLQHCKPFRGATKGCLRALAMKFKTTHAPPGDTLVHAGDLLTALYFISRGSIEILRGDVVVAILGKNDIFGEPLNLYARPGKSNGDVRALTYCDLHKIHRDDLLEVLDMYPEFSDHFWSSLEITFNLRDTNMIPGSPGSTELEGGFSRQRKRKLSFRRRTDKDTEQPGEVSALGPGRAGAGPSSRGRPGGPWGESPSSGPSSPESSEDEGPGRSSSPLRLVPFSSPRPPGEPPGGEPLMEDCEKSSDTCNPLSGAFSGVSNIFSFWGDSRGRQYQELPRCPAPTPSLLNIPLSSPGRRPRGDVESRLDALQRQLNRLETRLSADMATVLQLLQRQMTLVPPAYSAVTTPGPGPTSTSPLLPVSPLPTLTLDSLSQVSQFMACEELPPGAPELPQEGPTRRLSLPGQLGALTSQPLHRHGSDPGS
test_protocol: primary screen, population patch clamp on CHO cells stably expressing hERG; higher = less effect of the substance
The whole screen tested about 310,000 compounds, of which about 2,200 (0.71%) showed an effect of 50% or more. The effect is printed as a negative number. This excerpt belongs to a sample that is enriched for strong results.
Give measured hERG current change (%, negative = inhibition) at 1uM for each item. Keep answers brief.
Numbers only, in %.

Worked examples, 3 molecules total:
- molecule: "O=C(CN(C(=O)c1csnn1)c1ccc(F)cc1)NCc1ccc(F)cc1"
  target_of_assay: "human ether-à-go-go-related gene (hERG) potassium channel (human, UniProt Q12809)"
  result_number: 3.44
- molecule: "C/C(=N/NC(=O)c1ccco1)c1cccc(NC(=O)c2ccc(C)o2)c1"
  target_of_assay: "human ether-à-go-go-related gene (hERG) potassium channel (human, UniProt Q12809)"
  result_number: -8.71
- molecule: "O=C(O)C(=O)O.c1ccc(-c2ccc(OCCCNC3CCCC3)cc2)cc1"
  target_of_assay: "human ether-à-go-go-related gene (hERG) potassium channel (human, UniProt Q12809)"
  result_number: -54.9

I'm hoping you can list hERG current change (%, negative = inhibition) at 1uM for every molecule here, please.
1. COc1cccc(N2CCN(CC(=O)c3c(C)[nH]c4ccccc34)CC2)c1
2. COC(=O)CCCNS(=O)(=O)c1ccc2ccccc2c1
3. N#Cc1cccnc1N1CCN(C(=O)c2ccco2)CC1
4. N=c1c2c(ncn1CCCO)Oc1cc(O)ccc1C2c1ccccc1 (stereo not shown)
5. O=C(O)C(=O)O.c1ccc(Cc2ccc(OCCCNC3CCCC3)cc2)cc1
6. COc1ccc(C2c3ccc(O)cc3Oc3ncn(Cc4ccco4)c(=N)c32)cc1 (stereo not shown)
7. COc1ccc(/C=C2\SC(=S)N(CCC(=O)N3CCCCC3)C2=O)cc1

[-10.9, 10.7, 12.7, 0.259, -3.05, -43.5, -2.37]
